meta.source: patent US20210038587A1

# Test system: HT29
# procedureDetails: Reverse Phase Protein Analysis (RPPA)
# Type: cell-based
# recordedConditions: % change from DMSO (matched cell line)
reportedEndpoint: Avg (Bax) (%)
All answers are understood in %, so give the number only.

# annotated cases, reported Avg (Bax) shown
[[record]]
molecule = "Cc1cnc(Nc2ccc(F)cc2Cl)nc1-c1c[nH]c(C(=O)N[C@H](CO)c2cccc(Cl)c2)c1 [Vx-11e]"
reportedendpoint = "Avg (Bax)"
numericreadout = "−18.47"

[[record]]
molecule = "Cn1nccc1Nc1nccc(-c2ccn([C@H](CO)c3ccc(Cl)c(F)c3)c(=O)c2)n1 [GDC-0994]"
reportedendpoint = "Avg (Bax)"
numericreadout = 1.1

[[record]]
molecule = "CC(C)Nc1cc(-c2c[nH]c(C(=O)N[C@H](CO)c3cccc(Cl)c3)c2)c(Cl)cn1 [BVD-523]"
reportedendpoint = "Avg (Bax)"
numericreadout = 8.39


Moving on to the next molecule.
Input line: Please supply the value of reported Avg (Bax) for the item O=C(Nc1ccc2[nH]nc(-c3ccncc3)c2c1)[C@@H]1CCN(CC(=O)N2CCN(c3ccc(-c4ncccn4)cc3)CC2)C1 [SCH772984]
Output line: −20.59
